These entries and their values trace back to PubChem BioAssay (NCI).

- Tested on: SR leukemia
- ASSAY_TEXT: NCI tumour cell line growth inhibition, 48 h; in the data active means GI50 below about 0.43 µM; inactive means the rest
Pick one: True (active), False (inactive)

[in] Recorded call for Cc1ccc(S(=O)(=O)N2CCc3ccc(O)c4c3C2Cc2cc(Cl)ccc2-4)cc1 (stereo not given) ?
[out] False

[in] Also COc1ccc2c(c1)CCC1C2CC[C@]2(C)/C(=N/OC(=O)Cc3ccccc3)CCC12 (stereo not given in full) ?
[out] False

[in] Also Cc1[nH]c(=O)[nH]c(=O)c1CO ?
[out] False

[in] Also COC1=CC(c2ccc[nH]2)=N/C1=C\c1ccc[nH]1 ?
[out] True

[in] Also COC(=O)CCC/C=C\C[C@H]1C=CC(=O)/C1=C/C[C@@H](O)C/C=C\CC(F)(F)F ?
[out] True

----------
- Test system: T-47D breast
- ASSAY_TEXT: NCI tumour cell line growth inhibition, 48 h
Could you please report measured TGI for the items listed next?
Use µM as the unit, but write only the number.

[in] Can you look up the measured TGI of ClC1=C(Cc2ccccc2)Cc2ccc3c(c21)CCC3 for me?
[out] 50.4

[in] Also COc1ccc(/C=C/c2n[nH]c3ccc(N4CCOC4=O)cc23)cc1 ?
[out] 8.56

[in] Also S=C(S)N1CCN(c2ccc(Cl)c(Cl)c2)CC1 ?
[out] 42.6

[in] Also O=C(c1cccnc1)N1N=C(c2ccc(Cl)cc2)CC1(O)c1cc(F)c(Cl)cc1Cl (stereo not given) ?
[out] 20.7

[in] Also O=[N+]([O-])c1cc(-[n+]2cc([O-])on2)ccc1F ?
[out] 15.5

----------
- Test system: RPMI-8226 leukemia
- ASSAY_TEXT: NCI tumour cell line growth inhibition, 48 h
ATTRIBUTE_MEASURED: TGI

[in] Can you look up the measured TGI of OCC12C3C4C1C1C2C3C41CO (configuration not stated) for me?
[out] > 100 µM

[in] Also CCOC(=O)c1sc(Nc2ccc(Cl)cc2)nc1C ?
[out] 5.65 µM

[in] Also CSc1nc2sc3cc(Cl)ccc3n2c(=N)c1C#N ?
[out] > 100 µM

[in] Also Cc1nc(NC(=O)CCCN2C(=O)c3cccc4cccc(c34)C2=O)sc1C(=O)Nc1cc(C(=O)NCCCN(C)C)n(C)c1 ?
[out] > 100 µM

[in] Also COc1ccc2nc3ccccc3c(NCCCCCCN(C)CCCl)c2c1 ?
[out] 1.19 µM

[in] Also O=C1CCC2(CC1)SCCCS2 ?
[out] > 100 µM

[in] Also c1cncc(-c2ncc3cccnc3n2)c1 ?
[out] > 100 µM

----------
- System: EKVX NSCLC
- ASSAY_TEXT: NCI tumour cell line growth inhibition, 48 h; in the data active = GI50 below about 0.43 µM; inactive = the rest
Pick one: label 1 (active), label 0 (inactive)

[in] Recorded call for CO[C@@H]1[C@H](OC(=O)NC(=O)CCl)CC[C@]2(CO2)[C@H]1[C@@]1(C)O[C@@H]1CC=C(C)C ?
[out] label 0

[in] Also CSc1nc2sc3cc(Cl)ccc3n2c(=N)c1C#N ?
[out] label 0

[in] Also Nc1ccc(/C=N/Nc2ccnc3c(N)cccc23)c2cccnc12 ?
[out] label 0

[in] Also COc1ccc(-c2ccc(C3CC(c4ccc(Cl)cc4)=NN3)o2)c([N+](=O)[O-])c1 (centres undefined) ?
[out] label 0

[in] Also COC1=CC(c2ccc[nH]2)=N/C1=C\c1ccc[nH]1 ?
[out] label 0

[in] Also COC1=CC(c2ccc[nH]2)=N/C1=C\c1[nH]c(C)c(C(=O)CCCCC(=O)Nc2ccccc2)c1C ?
[out] label 0

[in] Also C=C(C)[C@@H]1CC[C@]2(C)[C@H](CC[C@@H]3[C@H]4[C@H]5OC[C@@]4(CCC5(C)C)CC[C@]32C)[C@@]1(C)CCCN ?
[out] label 0

[in] Also CCOC(=O)c1sc(=S)c2c(C(=O)OCC)c(C(=O)OCC)sc2c1C(=O)OCC ?
[out] label 0

[in] Also CCCCCCCC[N+](C)(CCCCCCCC)CCCCCCCC ?
[out] label 1
